experiment: Thermo Scientific Acclaim RSLC 120 C18, 100 × 2.1 mm, 2.2 µm, 30 °C; A: 90% water + 10% methanol + 0.01% formic acid + 5 mM ammonium formate; B: methanol + 0.01% formic acid + 5 mM ammonium formate; gradient (min/%B) 0.1/1 3/39 14/99.9 16/99.9; conditions: stereoisomer not certain
Field: LC retention time. Provide a value for each of the compounds that follow.
# include the unit after the value

Reference set (2 entries):
>>> readout_value("CC(C1=C(CCN(C)C)Cc2ccccc21)c1ccccn1 (configuration not stated)")
"6.86 min"
>>> readout_value("CN(C)C(=O)Oc1cc(OC(=O)N(C)C)cc(C(O)CNC(C)(C)C)c1 (configuration not stated)")
"5.16 min"

Please go through the list and note LC retention time for each compound.
1. CCNC(=O)c1ccc(OC)cc1
2. C(=Cc1ccccc1)CN1CCN(C(c2ccccc2)c2ccccc2)CC1

Result:
1. 5.59 min
2. 9.86 min
